B1: PhoQ; a variant is named by its letters at X, in order, P23837 (parent)
chain: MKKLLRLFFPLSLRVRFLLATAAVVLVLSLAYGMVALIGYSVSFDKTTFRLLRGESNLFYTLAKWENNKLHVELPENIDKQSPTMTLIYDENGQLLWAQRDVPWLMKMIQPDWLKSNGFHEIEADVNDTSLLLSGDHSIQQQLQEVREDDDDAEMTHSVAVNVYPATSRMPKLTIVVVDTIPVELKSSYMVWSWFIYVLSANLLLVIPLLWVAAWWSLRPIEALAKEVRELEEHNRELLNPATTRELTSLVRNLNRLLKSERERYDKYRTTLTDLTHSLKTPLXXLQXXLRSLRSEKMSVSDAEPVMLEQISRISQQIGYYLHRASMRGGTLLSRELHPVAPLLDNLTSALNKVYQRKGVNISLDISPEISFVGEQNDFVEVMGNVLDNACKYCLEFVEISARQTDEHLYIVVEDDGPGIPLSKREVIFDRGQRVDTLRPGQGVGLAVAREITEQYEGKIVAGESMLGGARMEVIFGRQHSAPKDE

Variants of: B1
assayComment: enrichment ratio after two sorts for PhoP signalling (ratio (wild type AVST 3.29)); higher = more functional
testSettings: with PhoP (E. coli)
The full ranking holds about 140,000 sequences; the median of “enrichment ratio after two sorts for PhoP signalling” is about 0, and the highest 2% start at about 11. This is one part of a sample in which the highest values are shown more often than they occur.
parameter: enrichment ratio

{"columns": ["variantIdentifier", "valueReported"],
 "data": [
  ["SEWI", 3.57],
  ["TAWY", 6.15],
  ["AAPM", 4.08],
  ["NEIH", "≤ 0.25"],
  ["SIMS", 12.1],
  ["SIKQ", "≤ 0.25"],
  ["THGQ", "≤ 0.25"],
  ["AAEK", "≤ 0.25"],
  ["AATM", 0.767],
  ["TCTG", 20],
  ["FQTS", "≤ 0.25"],
  ["GNVT", "≤ 0.25"],
  ["TCIG", "≤ 0.25"],
  ["SLAS", 5.06],
  ["DESQ", "≤ 0.25"],
  ["SWLC", "≤ 0.25"],
  ["PFQY", "≤ 0.25"],
  ["PDHR", "≤ 0.25"],
  ["MLVP", "≤ 0.25"],
  ["SLLI", 7.62],
  ["GLGE", "≤ 0.25"],
  ["TCQR", 4.53],
  ["KDLC", "≤ 0.25"],
  ["SQTS", 11.8],
  ["NGTL", "≤ 0.25"],
  ["KVRT", "≤ 0.25"],
  ["ESME", "≤ 0.25"],
  ["SSLY", 8.15],
  ["KSTS", "≤ 0.25"],
  ["KFTH", "≤ 0.25"],
  ["KYAS", "≤ 0.25"],
  ["SILL", 1.4],
  ["SGNS", "≤ 0.25"],
  ["EVYR", "≤ 0.25"],
  ["GGTL", 5.81],
  ["SIYI", "≤ 0.25"],
  ["ANDK", "≤ 0.25"],
  ["MMWP", "≤ 0.25"],
  ["KYMS", "≤ 0.25"],
  ["ASMM", 41.3],
  ["SSWI", 2.38],
  ["DLSC", "≤ 0.25"],
  ["EPNR", "≤ 0.25"],
  ["KGPM", "≤ 0.25"],
  ["NDNL", "≤ 0.25"],
  ["SISA", 11.9],
  ["VFFI", "≤ 0.25"],
  ["ITNE", "≤ 0.25"],
  ["TCVG", "≤ 0.25"],
  ["CVPS", "≤ 0.25"],
  ["KYLC", "≤ 0.25"],
  ["SGMS", 6.87],
  ["ADLC", 3.37],
  ["AHMM", "≤ 0.25"],
  ["AYMM", "≤ 0.25"],
  ["AIMM", 35.5],
  ["AKMM", 30.4],
  ["TGTL", 13.5],
  ["SCLC", 12.4],
  ["ARMM", 5.29],
  ["TYMF", "≤ 0.25"],
  ["TCMF", 26.2],
  ["RSCE", "≤ 0.25"],
  ["SEDT", "≤ 0.25"],
  ["KPVK", "≤ 0.25"],
  ["YYIN", "≤ 0.25"],
  ["APMM", "≤ 0.25"],
  ["KEHR", "≤ 0.25"],
  ["SELA", 12.4],
  ["VCGT", "≤ 0.25"],
  ["SSTI", 13.8],
  ["CFTL", 15.7],
  ["FKYT", "≤ 0.25"],
  ["VRSC", "≤ 0.25"],
  ["VWMT", "≤ 0.25"],
  ["GWNG", "≤ 0.25"],
  ["QEYM", 24.7],
  ["IDRY", "≤ 0.25"],
  ["STLC", 13.2],
  ["QRFM", "≤ 0.25"],
  ["CITL", "≤ 0.25"],
  ["SGMI", 25],
  ["ADMM", "≤ 0.25"],
  ["KYSA", "≤ 0.25"],
  ["YVCH", 0.383],
  ["TQVH", 8.69],
  ["ICMS", 2.8],
  ["KLPV", "≤ 0.25"],
  ["SNFF", "≤ 0.25"],
  ["KCNV", "≤ 0.25"],
  ["WDCT", "≤ 0.25"]
]}
